// reported EC50 for each item listed
tested on: Cytomegalovirus; assay: Antiviral activity against Cytomegalovirus Davis infected in human HEL cells assessed as reduction of plaque formation; format: functional, organism-based; conditions: Human betaherpesvirus 5, Davis

Compound	Experimental Target	Rel	EC50 [µM]
Nc1nc2c(ncn2COC(CO)CO)c(=O)[nH]1 [GANCICLOVIR]	Cytomegalovirus	=	5.98
Cc1nc(NCCCCNc2ccnc3cc(Cl)ccc23)nc(-c2ccccc2)c1C(=O)OC(C)C	Cytomegalovirus	>	4
CCOC(=O)c1c(C)nc(NCCCCNc2ccnc3cc(Cl)ccc23)nc1-c1ccccc1[N+](=O)[O-]	Cytomegalovirus	>	4
CCOC(=O)c1c(C)nc(NCCCCNc2ccnc3cc(Cl)ccc23)nc1-c1ccc(F)cc1	Cytomegalovirus	>	4
Nc1ccn(C[C@@H](CO)OCP(=O)(O)O)c(=O)n1 [CIDOFOVIR]	Cytomegalovirus	=	1.84
CCOC(=O)c1cnc(NCCCCNc2ccnc3cc(Cl)ccc23)nc1C	Cytomegalovirus	>	20
COC(=O)c1c(C)nc(NCCCNc2ccnc3cc(Cl)ccc23)nc1-c1ccccc1	Cytomegalovirus	=	15.3
CCOC(=O)c1c(C)nc(NCCCCNc2ccnc3cc(Cl)ccc23)nc1-c1ccc(Cl)cc1	Cytomegalovirus	>	4
CCOC(=O)c1c(C)nc(OCCCNc2ccnc3cc(Cl)ccc23)nc1-c1ccccc1	Cytomegalovirus	=	2.53

====

Quick list: EC50 per entry.
tested on: Human alphaherpesvirus 1; test: Antiviral activity against Herpes simplex virus-1 KOS infected in human HEL cells assessed as reduction of virus-induced cytopathogenicity; format: functional, organism-based; conditions: Human alphaherpesvirus 1, KOS
Property Measured: EC50

Smiles Representation	Reported
CCOC(=O)c1c(C)nc(NCCCCNc2ccnc3cc(Cl)ccc23)nc1-c1ccccc1[N+](=O)[O-]	> 4 µM
CCOC(=O)c1c(C)nc(OCCCNc2ccnc3cc(Cl)ccc23)nc1-c1ccccc1	> 100 µM
COC(=O)c1c(C)nc(NCCCNc2ccnc3cc(Cl)ccc23)nc1-c1ccccc1	> 20 µM
CCOC(=O)c1cnc(NCCCCNc2ccnc3cc(Cl)ccc23)nc1C	> 100 µM
Cc1nc(NCCCCNc2ccnc3cc(Cl)ccc23)nc(-c2ccccc2)c1C(=O)OC(C)C	> 4 µM
CCOC(=O)c1c(C)nc(NCCCCNc2ccnc3cc(Cl)ccc23)nc1-c1ccc(Cl)cc1	> 20 µM
CCOC(=O)c1c(C)nc(NCCCCNc2ccnc3cc(Cl)ccc23)nc1-c1ccc(F)cc1	> 100 µM

====

experiment: Cytotoxicity against MDCK cells assessed as cell viability after 4 days by MTS assay; format: cell-based, Canis lupus familiaris; settings: dog, MDCK cells
Listed below: MCC at 96 h values for each entry.
Property Measured: MCC at 96 h

Compound	Property Measured	Reported
CCOC(=O)c1c(C)nc(NCCCCNc2ccnc3cc(Cl)ccc23)nc1-c1ccc(Cl)cc1	MCC at 96 h	≥ 0.8 µM
CCOC(=O)c1cnc(NCCCCNc2ccnc3cc(Cl)ccc23)nc1C	MCC at 96 h	≥ 4 µM
NC(=O)c1ncn([C@@H]2O[C@H](CO)[C@@H](O)[C@H]2O)n1 [RIBAVIRIN]	MCC at 96 h	> 100 µM
NC12CC3CC(CC(C3)C1)C2 [AMANTADINE]	MCC at 96 h	> 200 µM
CC(N)C12CC3CC(CC(C3)C1)C2 (stereo not given) [RIMANTADINE]	MCC at 96 h	> 200 µM
